Entries below carry reported pIC50 on ROCK2 (Homo sapiens (Human)).
Sequence (O75116 whole entry, species assumed): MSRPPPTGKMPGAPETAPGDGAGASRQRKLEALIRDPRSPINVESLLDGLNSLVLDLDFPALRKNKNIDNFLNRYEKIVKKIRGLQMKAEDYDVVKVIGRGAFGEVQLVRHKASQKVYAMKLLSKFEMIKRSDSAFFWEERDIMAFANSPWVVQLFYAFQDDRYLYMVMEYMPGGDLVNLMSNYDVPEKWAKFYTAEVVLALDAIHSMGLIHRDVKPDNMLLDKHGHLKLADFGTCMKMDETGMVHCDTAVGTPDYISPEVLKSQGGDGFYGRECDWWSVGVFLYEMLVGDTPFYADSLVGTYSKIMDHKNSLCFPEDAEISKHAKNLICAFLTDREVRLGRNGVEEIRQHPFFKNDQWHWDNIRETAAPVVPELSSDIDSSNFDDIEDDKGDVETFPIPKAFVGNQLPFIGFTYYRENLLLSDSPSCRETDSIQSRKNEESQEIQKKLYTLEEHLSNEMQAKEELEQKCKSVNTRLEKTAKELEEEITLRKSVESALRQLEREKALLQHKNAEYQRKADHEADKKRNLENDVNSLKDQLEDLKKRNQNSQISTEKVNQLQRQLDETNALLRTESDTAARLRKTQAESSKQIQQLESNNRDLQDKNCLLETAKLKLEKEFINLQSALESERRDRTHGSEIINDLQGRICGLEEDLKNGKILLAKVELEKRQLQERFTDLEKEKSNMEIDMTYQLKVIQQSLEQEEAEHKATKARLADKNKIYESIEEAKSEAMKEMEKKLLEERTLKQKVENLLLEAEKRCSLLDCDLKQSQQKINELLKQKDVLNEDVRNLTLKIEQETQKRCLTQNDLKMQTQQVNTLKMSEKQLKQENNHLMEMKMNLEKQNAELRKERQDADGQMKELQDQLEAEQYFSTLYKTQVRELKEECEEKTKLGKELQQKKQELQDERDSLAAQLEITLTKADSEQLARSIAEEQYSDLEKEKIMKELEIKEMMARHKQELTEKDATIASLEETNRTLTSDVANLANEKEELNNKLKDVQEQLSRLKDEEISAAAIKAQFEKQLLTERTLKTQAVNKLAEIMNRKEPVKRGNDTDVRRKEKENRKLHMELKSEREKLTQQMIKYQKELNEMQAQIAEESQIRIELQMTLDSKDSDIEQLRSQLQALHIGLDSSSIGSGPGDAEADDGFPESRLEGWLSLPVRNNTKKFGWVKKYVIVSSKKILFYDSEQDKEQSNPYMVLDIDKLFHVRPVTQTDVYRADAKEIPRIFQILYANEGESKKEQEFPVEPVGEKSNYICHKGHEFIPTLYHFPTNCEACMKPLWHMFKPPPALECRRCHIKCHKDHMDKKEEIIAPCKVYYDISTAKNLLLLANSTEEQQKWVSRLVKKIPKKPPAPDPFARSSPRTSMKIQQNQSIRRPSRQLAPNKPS
Quick note: pIC50 values are minus log10 of concentrations in mol/L.

The examples below pair each entry with its known result.
>  <Compound>
CCn1cc(C(N)=O)c(O[C@H]2CC3(C[C@H](NC(=O)c4cnn5c(C6CC6)c(OCC(C)(C)O)ccc45)C3)C2)n1 (some centres unmarked)

>  <Metric>
pIC50

>  <Data value>
7.98

$$$$
>  <Compound>
COCCn1cc(C(N)=O)c(O[C@H]2CC3(C[C@H](NC(=O)c4cnn5c(C6CC6)c(OCC(C)(C)O)ccc45)C3)C2)n1 (some centres unmarked)

>  <Metric>
pIC50

>  <Data value>
7.11

$$$$
>  <Compound>
NC(=O)c1sc(C2CC2)nc1O[C@H]1C[C@@]2(C[C@H](NC(=O)c3cnn4cc(OCC(F)(F)F)ccc34)C2)C1 (some centres unmarked)

>  <Metric>
pIC50

>  <Data value>
7.94

$$$$
>  <Compound>
NC(=O)c1c(O[C@H]2CC3(C[C@H](NC(=O)c4cnn5cc(OCC(F)F)ccc45)C3)C2)nn2ccccc12 (some centres unmarked)

>  <Metric>
pIC50

>  <Data value>
6.93

$$$$

Here Cc1ccn2nc(O[C@H]3CC4(C[C@H](NC(=O)c5nn(C(F)F)c6cc(OCC(C)(C)O)ccc56)C4)C3)c(C(N)=O)c2c1 (some centres unmarked) was tested on ROCK2 (Homo sapiens (Human)), and its pIC50 came to 6.65

Recorded values, source patent US11673886B2.
